Ref: ChEMBL document CHEMBL4196155

TARGET_ENTITY: Melatonin receptor type 1B (Homo sapiens) (UniProt P49286)
Sequence (P49286 whole entry): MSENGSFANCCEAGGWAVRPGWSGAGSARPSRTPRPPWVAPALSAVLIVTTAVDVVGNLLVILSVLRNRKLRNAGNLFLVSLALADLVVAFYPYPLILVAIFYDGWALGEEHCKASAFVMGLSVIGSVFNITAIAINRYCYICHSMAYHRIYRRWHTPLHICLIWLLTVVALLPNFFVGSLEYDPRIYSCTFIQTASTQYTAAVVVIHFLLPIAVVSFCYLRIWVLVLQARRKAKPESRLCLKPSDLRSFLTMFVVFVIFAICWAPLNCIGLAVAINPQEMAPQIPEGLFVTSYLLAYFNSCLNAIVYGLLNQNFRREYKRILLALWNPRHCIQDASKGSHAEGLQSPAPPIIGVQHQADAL
METHOD_DESCRIPTION: Intrinsic agonist activity at human MT2 receptor expressed in […] NIH/3T3 cell membranes assessed as induction of G protein activation incubated for 30 mins by [35S]GTPgammaS binding assay relative to melatonin
Assay type: functional
REPORTED_PROPERTY: Intrinsic activity
Respond using a number only.

Some compounds with recorded Intrinsic activity:
>>> endpoint_value("CC(=O)NCCN(C)c1cccc(OCCCCCCOc2cccc(OC(=O)NC3CCCCC3)c2)c1")
0.71
>>> endpoint_value("CC(=O)NCCc1c[nH]c2ccc(OCCCCCCNC(=O)Oc3cccc(-c4ccccc4)c3)cc12")
1.02
>>> endpoint_value("CC(=O)NCCN(C)c1cccc(OCCCCCCNC(=O)Oc2cccc(-c3cccc(O)c3)c2)c1")
0.94
>>> endpoint_value("CC(=O)NCCN(C)c1cccc(OCCCCOc2cccc(O)c2)c1")
0.18
>>> endpoint_value("CC(=O)NCCN(C)c1cccc(OCCCCCCOc2cccc(O)c2)c1")
0.57

Quick check: Intrinsic activity of `CC(=O)NCCc1c(Br)[nH]c2ccc(OCCCCCCNC(=O)Oc3cccc(-c4ccccc4)c3)cc12` ?
0.97

Quick check: Intrinsic activity of `CC(=O)NCCN(C)c1cccc(OCCCCCCCCNC(=O)Oc2cccc(-c3ccccc3)c2)c1` ?
0.96

Quick check: Intrinsic activity of `CC(=O)NCCN(C)c1cccc(OCCCCCCNC(=O)Oc2cccc(-c3cccc(C(N)=O)c3)c2)c1` ?
1.01

Quick check: Intrinsic activity of `CC(=O)NCCN(C)c1cccc(OCCCCCCN)c1` ?
0.08

Quick check: Intrinsic activity of `CC(=O)NCCc1c[nH]c2ccc(OCCCCCCCCNC(=O)Oc3cccc(-c4ccccc4)c3)cc12` ?
0.53

Quick check: Intrinsic activity of `CCC(=O)NCCN(C)c1cccc(OCCCCCCNC(=O)Oc2cccc(-c3ccccc3)c2)c1` ?
0.88

Quick check: Intrinsic activity of `CC(=O)NCCN(C)c1cccc(OCCCCNC(=O)Oc2cccc(-c3ccccc3)c2)c1` ?
0.39

Quick check: Intrinsic activity of `CC(=O)NCCN(C)c1cccc(OCCCCCCNC(=O)Oc2cccc(-c3ccccc3)c2)c1` ?
0.75

Quick check: Intrinsic activity of `CC(=O)NCCN(C)c1cccc(OCCCCN)c1` ?
0.35

Quick check: Intrinsic activity of `CC(=O)NCCN(C)c1cccc(OCCCCOc2cccc(OC(=O)NC3CCCCC3)c2)c1` ?
0.05
